Tested on: K-562 leukemia
Experiment: NCI-60 one-dose screen, 48 h
Settings: 10 µM unless noted
Procedure: Cells are grown in 96 well plates and exposed to the test compound for 48 hours. Compounds are tested at a single concentration, which is 10^-5 M for most compounds. The reported endpoint is percent growth (GI% or GIPRCNT), where numbers from 0 - 100% represent growth inhibition, and numbers from -100% - 0 represent cell death. For example, a value of 40 represents 60% growth inhibition. A value of 0 means no net growth occurred over the course of the experiment. […]
About 83,000 compounds went through this panel and 20% of them were active in at least one assay; those are over-represented in the sample as a whole. The source made the active and inactive calls. The calls were made as follows: active = growth percent below 10; inactive = the rest.
One label from this list, please: yes (1) = active, no (0) = inactive

Ask: Identify the outcome logged in this assay for the compound shown: `COc1ccc(NC(=O)c2ccc(Nc3ncnc4[nH]c(C)c(C)c34)cc2)cc1`
Result: no (0)

Ask: Identify the outcome logged in this assay for the compound shown: `Cc1cc(C)nc(NS(=O)(=O)c2ccc(Nc3ccc4c5c(n(CCCN(C)C)c(=O)c4c3)-c3ccccc3C5=O)cc2)n1`
Result: no (0)

Ask: Identify the outcome logged in this assay for the compound shown: `C=C(C)[C@@H]1CC[C@]2(C(=O)O)CC[C@]3(C)[C@H](CC[C@@H]4[C@@]5(C)C[C@@H](CC#Cc6ccccc6C)C(=O)C(C)(C)[C@@H]5CC[C@]43C)[C@@H]12`
Result: no (0)

Ask: Identify the outcome logged in this assay for the compound shown: `O=C(CCl)N1CCCc2ccccc21`
Result: no (0)

Ask: Identify the outcome logged in this assay for the compound shown: CC(=O)OCC1SC(OC(C)=O)C(NC(=O)/C=C/CCl)C(OC(C)=O)C1OC(C)=O (configuration not stated)
Result: no (0)

Ask: Identify the outcome logged in this assay for the compound shown: `CN(C)C1=NCCN1`
Result: no (0)

Ask: Identify the outcome logged in this assay for the compound shown: `COCCOCCOCc1n(Cc2ccc3ccccc3n2)c2ccccc2[n+]1Cc1ccc2ccccc2n1`
Result: no (0)

Ask: Identify the outcome logged in this assay for the compound shown: `O=C(Nc1cc(Nc2ncccc2-c2ncnc3nc[nH]c23)ccc1F)c1cc(C(F)(F)F)cc(C(F)(F)F)c1`
Result: yes (1)

Ask: Identify the outcome logged in this assay for the compound shown: `Nc1ccc(C(=O)Nc2cccc(C(=O)Nc3ccc4c(O)c(N=Nc5ccc(N=Nc6ccc(S(=O)(=O)O)cc6)cc5)c(S(=O)(=O)O)cc4c3)c2)cc1`
Result: no (0)

Ask: Identify the outcome logged in this assay for the compound shown: `O=Cc1[nH]c(Sc2ccccc2)c2ccccc12`
Result: no (0)

Ask: Identify the outcome logged in this assay for the compound shown: COc1ccc2nc(-c3ccc(Cl)cc3)cc(C(=O)N3N=C(c4ccc(N)cc4)CC3c3ccccc3)c2c1 (configuration not stated)
Result: no (0)

Ask: Identify the outcome logged in this assay for the compound shown: `C=C1C(=O)O[C@H]2[C@H]1CC/C(COC(=O)c1cccnc1N)=C\CC[C@@]1(C)O[C@@H]21`
Result: no (0)

Ask: Identify the outcome logged in this assay for the compound shown: `C=C(C)[C@@H]1CC[C@]2(C(=O)NCCCO)CC[C@]3(C)[C@H](CC[C@@H]4[C@@]5(C)CCCNC(C)(C)[C@@H]5CC[C@]43C)[C@@H]12`
Result: yes (1)

Ask: Identify the outcome logged in this assay for the compound shown: `Cc1nn(-c2ccc(-c3ccc(OC(F)(F)F)cc3)cc2)c2nc(-c3ccccc3)nc(N)c12`
Result: no (0)

Ask: Identify the outcome logged in this assay for the compound shown: `CCCCn1c(=O)c(/C=C/C(=O)/C=C/c2ccc(O)c(OC)c2)cc2ccc(Cl)cc21`
Result: yes (1)

Ask: Identify the outcome logged in this assay for the compound shown: `C=C1C(=O)O[C@H]2[C@H]1CC/C(COC(=O)CCCCC(=O)OC/C1=C/CC[C@@]3(C)O[C@H]3[C@H]3OC(=O)C(=C)[C@@H]3CC1)=C\CC[C@@]1(C)O[C@@H]21`
Result: yes (1)

Ask: Identify the outcome logged in this assay for the compound shown: `Nc1ccc2c(c1)C(=O)C(=O)c1c-2nc2ccccn12`
Result: yes (1)
